Entries and their measured combination Emax follow.
Tested on: EPLC-272H (Other Solid Carcinomas)
Test: combination Emax (second highest fraction inhibited in the dose matrix, 72 h); higher = more inhibition; extreme values may be limits of the assay

MOLECULE	ASSAY TARGET	combination Emax
CN(CCO)CC[C@H](CSc1ccccc1)Nc1ccc(S(=O)(=O)NC(=O)c2ccc(N3CCC([C@@H](O)c4ccccc4-c4ccc(Cl)cc4)CC3)cc2)cc1S(=O)(=O)C(F)(F)F [AZD4320] + C=CCn1c(=O)c2cnc(Nc3ccc(N4CCN(C)CC4)cc3)nc2n1-c1cccc(C(C)(C)O)n1 [AZD1775] (first compound max 1 µM, partner max 1 µM)	EPLC-272H (Other Solid Carcinomas)	0.909
C[C@@H](c1ccc2nccn2c1)n1nnc2ncc(-c3cnn(C)c3)nc21 [Savolitinib] + Cc1c2c(nn1C)CSCc1cc(n(C)n1)CSc1cc(c3ccccc3c1)OCCCc1c(C(=O)O)n(C)c3c-2c(Cl)ccc13 [AZD5991] (first compound max 1 µM, 7x7, partner max 1 µM)	EPLC-272H (Other Solid Carcinomas)	0.462

---

System: TE-10 (Esophageal Squamous Cell Carcinoma)
Experiment: combination Emax (second highest fraction inhibited in the dose matrix, 72 h); higher = more inhibition; extreme values may be limits of the assay
OBSERVED PROPERTY: combination Emax

MOLECULE	NUMBER
CN(CCO)CC[C@H](CSc1ccccc1)Nc1ccc(S(=O)(=O)NC(=O)c2ccc(N3CCC([C@@H](O)c4ccccc4-c4ccc(Cl)cc4)CC3)cc2)cc1S(=O)(=O)C(F)(F)F [AZD4320] + Cc1cc2ncnn2cc1Nc1ncc2c(n1)n(C1CCOCC1)c(=O)n2C [AZD7648] (first compound max 1 µM, 7x7, partner max 10 µM)	0.202
COc1cccc(OCCCN)c1-c1cc(Nc2cnc(C#N)cn2)n[nH]1 [Prexasertib] + Cc1cc2ncnn2cc1Nc1ncc2c(n1)n(C1CCOCC1)c(=O)n2C [AZD7648] (first compound max 1 µM, 7x7, partner max 10 µM)	0.938
CN(C)CCCOc1ccc(-c2ccc3ncc4c(c3c2)n(C2CCOCC2)c(=O)n4C)cn1 [AZD0156] + CCN(CCO)CCCOc1ccc2c(Nc3cc(CC(=O)Nc4cccc(F)c4)[nH]n3)ncnc2c1 [AZD2811] (first compound max 1 µM, 7x7, partner max 1 µM)	0.332
CN(CCO)CC[C@H](CSc1ccccc1)Nc1ccc(S(=O)(=O)NC(=O)c2ccc(N3CCC([C@@H](O)c4ccccc4-c4ccc(Cl)cc4)CC3)cc2)cc1S(=O)(=O)C(F)(F)F [AZD4320] + CCN(CCO)CCCOc1ccc2c(Nc3cc(CC(=O)Nc4cccc(F)c4)[nH]n3)ncnc2c1 [AZD2811] (first compound max 1 µM, 7x7, partner max 1 µM)	0.463

---

System: NCI-H716 (Colorectal Carcinoma)
Assay: combination Emax (second highest fraction inhibited in the dose matrix, 72 h); higher = more inhibition; extreme values may be limits of the assay
Listed next: entries and their corresponding combination Emax.

COMPOUND	combination Emax
COc1nnc2ccc(N3CCC(c4ccc(OCCN5CCN(C)C(=O)[C@H]5C)cc4)CC3)nn12 [AZD5153] + C=CCn1c(=O)c2cnc(Nc3ccc(N4CCN(C)CC4)cc3)nc2n1-c1cccc(C(C)(C)O)n1 [AZD1775] (first compound max 1 µM, partner max 1 µM)	0.524
NC1(C(=O)N[C@@H](CCO)c2ccc(Cl)cc2)CCN(c2ncnc3[nH]ccc23)CC1 [Capivasertib] + CC(C)n1c(=O)n(C)c2cnc3cc(F)c(-c4ccc(OCCCN5CCCCC5)nc4)cc3c21 [AZD1390] (first compound max 10 µM, 7x7, partner max 0.3 µM)	0.45
CC(=O)c1c(C)c2cnc(Nc3ccc(N4CCNCC4)cn3)nc2n(C2CCCC2)c1=O [Palbociclib] + CC1(C)CCC(CN2CCN(c3ccc(C(=O)NS(=O)(=O)c4ccc(NCC5CCOCC5)c([N+](=O)[O-])c4)c(Oc4cnc5[nH]ccc5c4)c3)CC2)=C(c2ccc(Cl)cc2)C1 [Venetoclax] (first compound max 10 µM, 7x7, partner max 1 µM)	0.475

---

Listed below: Bliss excess values for each entry.
Test system: HCC1428 (Breast Carcinoma)
Assay: Bliss excess, mean over the matrix (fraction); higher = more synergy

COMPOUND	ASSAY TARGET	Bliss excess
NC1(C(=O)N[C@@H](CCO)c2ccc(Cl)cc2)CCN(c2ncnc3[nH]ccc23)CC1 [Capivasertib] + Cn1cnc2c(F)c(Nc3ccc(Br)cc3Cl)c(C(=O)NOCCO)cc21 [Selumetinib] (first compound max 10 µM, 7x7, partner max 10 µM)	HCC1428 (Breast Carcinoma)	0.0149
CC1(C)CCC(CN2CCN(c3ccc(C(=O)NS(=O)(=O)c4ccc(NCC5CCOCC5)c([N+](=O)[O-])c4)c(Oc4cnc5[nH]ccc5c4)c3)CC2)=C(c2ccc(Cl)cc2)C1 [Venetoclax] + COc1cc(Nc2ncc3c(n2)-c2ccc(Cl)cc2C(c2c(F)cccc2OC)=NC3)ccc1C(=O)O [Alisertib] (first compound max 1 µM, 7x7, partner max 10 µM)	HCC1428 (Breast Carcinoma)	0.0554

---

Let's look at some compounds and their measured Bliss excess.
Tested on: HCC1395 (Breast Carcinoma)
Assay: Bliss excess, mean over the matrix (fraction); higher = more synergy

COMPOUND	ASSAY TARGET	Bliss excess
Cc1c2c(nn1C)CSCc1cc(n(C)n1)CSc1cc(c3ccccc3c1)OCCCc1c(C(=O)O)n(C)c3c-2c(Cl)ccc13 [AZD5991] + CCN(CCO)CCCOc1ccc2c(Nc3cc(CC(=O)Nc4cccc(F)c4)[nH]n3)ncnc2c1 [AZD2811] (first compound max 1 µM, 7x7, partner max 1 µM)	HCC1395 (Breast Carcinoma)	0.0432
CN(CCO)CC[C@H](CSc1ccccc1)Nc1ccc(S(=O)(=O)NC(=O)c2ccc(N3CCC([C@@H](O)c4ccccc4-c4ccc(Cl)cc4)CC3)cc2)cc1S(=O)(=O)C(F)(F)F [AZD4320] + C[C@@H](Nc1cc(F)cc(F)c1)c1cc(C(=O)N(C)C)cc2c(=O)cc(N3CCOCC3)oc12 [AZD8186] (first compound max 1 µM, 7x7, partner max 3 µM)	HCC1395 (Breast Carcinoma)	0.0463
CC1(C)CCC(CN2CCN(c3ccc(C(=O)NS(=O)(=O)c4ccc(NCC5CCOCC5)c([N+](=O)[O-])c4)c(Oc4cnc5[nH]ccc5c4)c3)CC2)=C(c2ccc(Cl)cc2)C1 [Venetoclax] + Cc1cc2ncnn2cc1Nc1ncc2c(n1)n(C1CCOCC1)c(=O)n2C [AZD7648] (first compound max 1 µM, 7x7, partner max 10 µM)	HCC1395 (Breast Carcinoma)	-0.0491

---

System: CGTH-W-1 (Thyroid Gland Carcinoma)
Assay: combination Emax (second highest fraction inhibited in the dose matrix, 72 h); higher = more inhibition; extreme values may be limits of the assay
OBSERVED PROPERTY: combination Emax

COMPOUND	OBSERVED PROPERTY	NUMBER
CN(CCO)CC[C@H](CSc1ccccc1)Nc1ccc(S(=O)(=O)NC(=O)c2ccc(N3CCC([C@@H](O)c4ccccc4-c4ccc(Cl)cc4)CC3)cc2)cc1S(=O)(=O)C(F)(F)F [AZD4320] + CCN(CCO)CCCOc1ccc2c(Nc3cc(CC(=O)Nc4cccc(F)c4)[nH]n3)ncnc2c1 [AZD2811] (first compound max 1 µM, 7x7, partner max 1 µM)	combination Emax	0.292
COc1nnc2ccc(N3CCC(c4ccc(OCCN5CCN(C)C(=O)[C@H]5C)cc4)CC3)nn12 [AZD5153] + C=CCn1c(=O)c2cnc(Nc3ccc(N4CCN(C)CC4)cc3)nc2n1-c1cccc(C(C)(C)O)n1 [AZD1775] (first compound max 1 µM, partner max 1 µM)	combination Emax	0.275
Cc1c2c(nn1C)CSCc1cc(n(C)n1)CSc1cc(c3ccccc3c1)OCCCc1c(C(=O)O)n(C)c3c-2c(Cl)ccc13 [AZD5991] + CS(=O)(=O)CCNCc1ccc(-c2ccc3ncnc(Nc4ccc(OCc5cccc(F)c5)c(Cl)c4)c3c2)o1 [Lapatinib] (first compound max 1 µM, 7x7, partner max 10 µM)	combination Emax	0.221

---

# combination Emax per record follows
Tested on: 769-P (Kidney Carcinoma)
Assay: combination Emax (second highest fraction inhibited in the dose matrix, 72 h); higher = more inhibition; extreme values may be limits of the assay
OBSERVED PROPERTY: combination Emax

COMPOUND	OBSERVED PROPERTY	NUMBER
Cc1cc2ncnn2cc1Nc1ncc2c(n1)n(C1CCOCC1)c(=O)n2C [AZD7648] + C[C@@H]1COCCN1C2=NC(=NC(=C2)C3(CC3)[S@](=N)(=O)C)C4=C5C=CNC5=NC=C4 [AZD6738] (first compound max 10 µM, 7x7, partner max 10 µM)	combination Emax	0.819
COc1nnc2ccc(N3CCC(c4ccc(OCCN5CCN(C)C(=O)[C@H]5C)cc4)CC3)nn12 [AZD5153] + C=CCn1c(=O)c2cnc(Nc3ccc(N4CCN(C)CC4)cc3)nc2n1-c1cccc(C(C)(C)O)n1 [AZD1775] (first compound max 1 µM, partner max 1 µM)	combination Emax	0.956
C=CCn1c(=O)c2cnc(Nc3ccc(N4CCN(C)CC4)cc3)nc2n1-c1cccc(C(C)(C)O)n1 [AZD1775] + O=C(c1cc(Cc2n[nH]c(=O)c3ccccc23)ccc1F)N1CCN(C(=O)C2CC2)CC1 [Olaparib] (first compound max 1 µM, partner max 10 µM)	combination Emax	0.716
CN(C)CCCOc1ccc(-c2ccc3ncc4c(c3c2)n(C2CCOCC2)c(=O)n4C)cn1 [AZD0156] + O=C(c1cc(Cc2n[nH]c(=O)c3ccccc23)ccc1F)N1CCN(C(=O)C2CC2)CC1 [Olaparib] (first compound max 3 µM, partner max 3 µM)	combination Emax	0.16
CN(CCO)CC[C@H](CSc1ccccc1)Nc1ccc(S(=O)(=O)NC(=O)c2ccc(N3CCC([C@@H](O)c4ccccc4-c4ccc(Cl)cc4)CC3)cc2)cc1S(=O)(=O)C(F)(F)F [AZD4320] + C[C@@H]1COCCN1C2=NC(=NC(=C2)C3(CC3)[S@](=N)(=O)C)C4=C5C=CNC5=NC=C4 [AZD6738] (first compound max 1 µM, 7x7, partner max 10 µM)	combination Emax	0.966
CC1(C)CCC(CN2CCN(c3ccc(C(=O)NS(=O)(=O)c4ccc(NCC5CCOCC5)c([N+](=O)[O-])c4)c(Oc4cnc5[nH]ccc5c4)c3)CC2)=C(c2ccc(Cl)cc2)C1 [Venetoclax] + CN(C)CCCOc1ccc(-c2ccc3ncc4c(c3c2)n(C2CCOCC2)c(=O)n4C)cn1 [AZD0156] (first compound max 1 µM, 7x7, partner max 1 µM)	combination Emax	0.256
CC1(C)CCC(CN2CCN(c3ccc(C(=O)NS(=O)(=O)c4ccc(NCC5CCOCC5)c([N+](=O)[O-])c4)c(Oc4cnc5[nH]ccc5c4)c3)CC2)=C(c2ccc(Cl)cc2)C1 [Venetoclax] + C[C@@H]1COCCN1C2=NC(=NC(=C2)C3(CC3)[S@](=N)(=O)C)C4=C5C=CNC5=NC=C4 [AZD6738] (first compound max 1 µM, 7x7, partner max 10 µM)	combination Emax	0.815

Taken from the supplement of paper PMC11061612.
